I'd be grateful if you could share measured hCCL1 (100 nM) residual response, Protocol #2, mAb 0.4 µg/mL for these entries.
- Target: human CCR8 (human, UniProt P51685 1-355)
- Test Method Notes: cell-based or functional assay
Numbers only here, please. The scale is %.

Ask: Query: hCCL1 (100 nM) residual response, Protocol #2, mAb 0.4 µg/mL; subject: 3-21 (antibody, V domains shown) VH: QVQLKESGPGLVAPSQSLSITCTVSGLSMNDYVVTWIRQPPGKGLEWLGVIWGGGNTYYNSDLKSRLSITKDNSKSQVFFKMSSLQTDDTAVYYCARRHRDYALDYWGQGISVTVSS VL: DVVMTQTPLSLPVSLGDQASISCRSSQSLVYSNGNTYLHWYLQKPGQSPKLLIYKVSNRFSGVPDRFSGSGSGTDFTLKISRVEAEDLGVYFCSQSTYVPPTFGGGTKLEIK
Reply: 97

Ask: Query: hCCL1 (100 nM) residual response, Protocol #2, mAb 0.4 µg/mL; subject: 3-82 (antibody, human IgG1, kappa, V domains shown, humanized, human IgG1 kappa) VH: QVQLVESGGGVVQPGRSLRLSCAASGFTFSNYRMHWVRQAPGKGLEWIAVIKVKSDNYGANYADSVKGRFTISRDNSKNTLYLQMNSLRAEDTAVYYCSSPTYPGSSGFAYWGQGTLVTVSS VL: DIQMTQSPSSLSASVGDRVTITCRASQDISNYLNWYQQKPDGTVKLLIYYTSRLHTGVPSRFSGSGSGTDYTLTISNLQQEDIATYFCQQGNKFPPTFGGGTKVEINR
Reply: 94

Ask: Query: hCCL1 (100 nM) residual response, Protocol #2, mAb 0.4 µg/mL; subject: 3-29 (antibody, V domains shown) VH: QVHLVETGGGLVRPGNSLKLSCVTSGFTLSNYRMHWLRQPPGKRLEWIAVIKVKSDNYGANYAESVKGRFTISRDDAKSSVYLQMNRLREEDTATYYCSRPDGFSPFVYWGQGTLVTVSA VL: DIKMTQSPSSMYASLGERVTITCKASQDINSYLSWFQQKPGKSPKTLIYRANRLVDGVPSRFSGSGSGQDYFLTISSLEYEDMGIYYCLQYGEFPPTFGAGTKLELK
Reply: 51

Ask: Query: hCCL1 (100 nM) residual response, Protocol #2, mAb 0.4 µg/mL; subject: 3-50 (antibody, V domains shown) VH: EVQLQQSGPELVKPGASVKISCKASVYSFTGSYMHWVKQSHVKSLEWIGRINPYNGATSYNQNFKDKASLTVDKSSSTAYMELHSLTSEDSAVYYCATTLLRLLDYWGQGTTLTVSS VL: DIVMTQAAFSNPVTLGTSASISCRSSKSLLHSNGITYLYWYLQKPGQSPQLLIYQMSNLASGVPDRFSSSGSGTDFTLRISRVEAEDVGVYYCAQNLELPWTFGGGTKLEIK
Reply: 96

Ask: Query: hCCL1 (100 nM) residual response, Protocol #2, mAb 0.4 µg/mL; subject: 3-79 (antibody, human IgG1, kappa, V domains shown, humanized, human IgG1 kappa) VH: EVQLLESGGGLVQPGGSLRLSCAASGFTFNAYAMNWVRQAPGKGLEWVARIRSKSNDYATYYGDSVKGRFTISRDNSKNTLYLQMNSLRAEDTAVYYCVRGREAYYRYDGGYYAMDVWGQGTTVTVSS VL: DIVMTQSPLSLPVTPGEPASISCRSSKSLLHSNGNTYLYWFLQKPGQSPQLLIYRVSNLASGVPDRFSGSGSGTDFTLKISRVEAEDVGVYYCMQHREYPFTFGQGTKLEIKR
Reply: 77
